# TARGET OR SYSTEM: farnesyl protein transferase
# MEASUREMENT PROTOCOL: In vitro enzyme assay: inhibition of farnesyl protein transferase (FPT), [3H]farnesyl transfer to Ras-CVLS
Kindly state IC50 for each of the entries shown.
Answers are plain numbers, in nM.

Some compounds with known IC50 results, for comparison:
[
  {
    "COMPOUND": "O=C(CCCCCN1C(=O)C=CC1=O)N1CCC(C2c3ncc(Br)cc3CCc3cc(Cl)cc(Cl)c32)CC1 (single isomer, unassigned)",
    "IC50 / nM": 620
  },
  {
    "COMPOUND": "NC(=O)CC(=O)N1CCC([C@H]2c3ncc(Br)cc3CCc3cc(Cl)cc(Br)c32)CC1",
    "IC50 / nM": 68
  },
  {
    "COMPOUND": "O=C(O)CCCCCC(=O)N1CCC([C@H]2c3ncc(Br)cc3CCc3cc(Cl)cc(Br)c32)CC1",
    "IC50 / nM": 9.1
  }
]

Query string: Entry COC(=O)CCC(=O)N1CCC([C@H]2c3ncc(Br)cc3CCc3cc(Cl)cc(Br)c32)CC1 has what IC50?
Result string: 9

These data points were gathered from patent US6277854A.
